Biological target: T1, GFP-9S library array, motif 4 ND N98P;D124C (synthetic construct, N98P;D124C)
T1 chain: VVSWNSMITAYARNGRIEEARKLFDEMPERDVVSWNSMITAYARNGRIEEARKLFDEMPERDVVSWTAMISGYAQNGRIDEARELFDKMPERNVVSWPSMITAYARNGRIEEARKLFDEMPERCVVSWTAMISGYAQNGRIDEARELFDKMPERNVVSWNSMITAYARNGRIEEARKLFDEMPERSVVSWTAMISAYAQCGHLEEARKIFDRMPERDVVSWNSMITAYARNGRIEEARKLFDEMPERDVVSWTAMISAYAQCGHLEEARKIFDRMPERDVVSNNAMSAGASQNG
Experiment: high-throughput RNA pulldown from lysate on Ni-NTA beads; HRP: 50 mM Tris pH 8, 150 mM NaCl, 1 mM beta-mercaptoethanol, 50 ug/ml BSA, 3 ug/ml yeast RNA, 0.5% heparin; ITC and FP: Tris pH 8, 200 mM KCl, 5% glycerol; MST: 50 mM Tris pH 8, 200 mM NaCl, 1 mM DTT, BSA, heparin, 0.05% Tween 20
Settings: tags: N-terminal His-eGFP; label: 5' Cy5
Metric name: pKd
Remember, pKd is on a log scale: it is -log10 of the molar concentration.

Input AUUAGACGUGA (ssRNA) [Cy5-rpoA-G] . Output pKd: 6.53

Input AUUACACGUGA (ssRNA) [Cy5-rpoA] . Output pKd: 6.48
